# assayText: Ex vivo biodistribution of 177Lu-labeled ligands in PC-3 tumor-bearing mice
# conditionContext: male, NOD.Cg-Rag1^tm1Mom Il2rg^tm1Wjl/SzJ (NRG), mouse, tumor/blood, iv, total radioactivity, 1 h pi, blocked (100 µg GRPR antagonist co-injected); read-out: Tumor/blood uptake ratio
# tissue to tissue ratio at 1 h values compiled below
I only need the number, thanks.

CC(C)C[C@H](NC(=O)[C@H](Cc1cnc[nH]1)N(C)C(=O)CNC(=O)[C@@H](NC(=O)[C@H](C)NC(=O)[C@H](Cc1c[nH]c2ccccc12)NC(=O)[C@H](CCC(N)=O)NC(=O)[C@@H](Cc1ccccc1)NC(=O)CN1CCC(NC(=O)CN2CCN(CC(=O)O)CCN(CC(=O)O)CCN(CC(=O)O)CC2)CC1)C(C)(C)C)C(=O)N1CC(F)(F)C[C@H]1C(N)=O [[^177Lu]Lu-LW02060, metal not drawn] ... 6.37

Proceeding to the next compound to report its tissue to tissue ratio at 1 h.
Task item: What does the record list as tissue to tissue ratio at 1 h for CC(C)C[C@@H](CN1CC(F)(F)C[C@H]1C(N)=O)NC(=O)[C@H](Cc1c[nH]cn1)NC(=O)CN(C)C(=O)[C@@H](NC(=O)[C@H](C)NC(=O)[C@H](Cc1c[nH]c2ccccc12)NC(=O)[C@H](CCC(N)=O)NC(=O)[C@@H](Cc1ccccc1)NC(=O)CN1CCC(NC(=O)CN2CCN(CC(=O)O)CCN(CC(=O)O)CCN(CC(=O)O)CC2)CC1)C(C)C [[^177Lu]Lu-LW02080, metal not drawn] ?
Reply: 3.06
